Assay: Cytotoxicity against human Huh-7 cells assessed as reduction in cell viability by cellular ATP method
Assay type: toxicity, cell-based
parameter_measured: CC50

CN(C)CCOc1ccc(/C(=C(/CCCl)c2ccccc2)c2ccccc2)cc1 [TOREMIFENE] | 9.31 µM

For the next question, use this compound.
Need CC50 of "CC(C)(C)NC(=O)[C@@H]1C[C@@H]2CCCC[C@@H]2CN1C[C@H](O)CNCCc1ccc(Cl)cc1" , thanks. 4.04 µM
